Test system: HeLa
Experiment: cell viability (CellTiter-Glo) relative to median of lowest-dilution wells of all drugs (fraction); higher = more viable cells
Conditions: drug concentration (unit not stated): 3.33; genotype: control (DDX11 wild type)
Structures can show the parent of a compound that is named as a salt.
Note to self: cell viability under 0.8 means t, ties and anything higher get f.

Past entries and their recorded results:
# compound, group
measured = [
    ("NC(=O)c1ccc(I)c([N+](=O)[O-])c1", "f"),
    ("CCn1nc(C2CCN(C(=O)CCO)CC2)nc1-c1cnc(N)c(-c2nnc(C(C)(C)C)o2)n1", "f"),
    ("O=c1cc(-c2cccc3c2Sc2ccccc2S3)oc(N2CCOCC2)c1", "f"),
    ("CCN(CCO)CCCOc1ccc2c(Nc3cc(CC(=O)Nc4cccc(F)c4)[nH]n3)ncnc2c1", "f"),
    ("Nc1nc2[nH]cnc2c(=S)[nH]1", "t"),
    ("CO[C@H]1C[C@@H]2CC[C@@H](C)[C@@](O)(O2)C(=O)C(=O)N2CCCC[C@H]2C(=O)O[C@H]([C@H](C)C[C@@H]2CC[C@@H](O)[C@H](OC)C2)CC(=O)[C@H](C)/C=C(\\C)[C@@H](O)[C@@H](OC)C(=O)[C@H](C)C[C@H](C)/C=C/C=C/C=C/1C [Rapamycin (Sirolimus)]", "f"),
]

// query Report whether reported cell viability is lower than 0.8 (strictly) for `CCCCCCNC(=O)n1cc(F)c(=O)[nH]c1=O`
// result f

// query Then this compound: `O=C(O)C1(C(=O)O)CCC1.[NH2-].[NH2-].[Pt+2]`
// result f

// query Then this compound: `CC1(C)CCC(c2ccc(Cl)cc2)=C(CN2CCN(c3ccc(C(=O)NS(=O)(=O)c4ccc(N[C@H](CCN5CCOCC5)CSc5ccccc5)c(S(=O)(=O)C(F)(F)F)c4)cc3)CC2)C1`
// result f

// query Then this compound: COC1=CC(c2cc3ccccc3[nH]2)=N/C1=C\c1[nH]c(C)cc1C [Obatoclax mesylate]
// result t

// query Then this compound: N.N.[Cl][Pt][Cl] [Cisplatin]
// result t

// query Then this compound: `CC(=O)c1c(C)c2cnc(Nc3ccc(N4CCNCC4)cn3)nc2n(C2CCCC2)c1=O`
// result f

// query Then this compound: `O=c1cc(N2CCOCC2)oc2c(-c3cccc4c3sc3ccccc34)cccc12`
// result f

// query Then this compound: `CC(=O)Nc1cccc(-n2c(=O)n(C3CC3)c(=O)c3c(Nc4ccc(I)cc4F)n(C)c(=O)c(C)c32)c1`
// result f

// query Then this compound: `Cn1cnc2c(F)c(Nc3ccc(Br)cc3Cl)c(C(=O)NOCCO)cc21`
// result f

// query Then this compound: Cc1sc2c(c1C)C(c1ccc(Cl)cc1)=N[C@@H](CC(=O)OC(C)(C)C)c1nnc(C)n1-2 [(+)-JQ-1]
// result t
